Would you kindly list cell viability/% for each of these molecules?
Test system: P388 mouse leukemia cells
APPLIED CONDITIONS: 92 h
Method: Each type of assay must be simplified and miniaturized to assess the activities of the library peptides in a 96-well format for the high-throughput screening. […] Mammalian cytotoxicity assay of bead-derived peptides . P388 cells were obtained from Institute of […] for 92 h, the numbers of viable cells were determined by […] at 37 °C. The absorbance of each well at 415 nm was measured using a Benchmark microplate reader (Bio-Rad). The cytotoxicities were evaluated as cell viability (%). […]
Where a SMILES comes first, the peptide text is derived from it. [ ]: non-standard residue; d: D form. The star is where a group is joined. NHCH2CH2OH = OCCN*; For = O=C*
Response body: numeric value in %, unit text excluded.

Query for P388 mouse leukemia cells: what cell viability/% does the record show for CC(C)C[C@@H](NC(=O)[C@H](C)NC(=O)[C@H](NC(=O)[C@H](C)NC(=O)CNC(=O)[C@@H](NC=O)C(C)C)[C@H](C)O)C(=O)N[C@H](C(=O)N[C@H](CC(C)C)C(=O)N[C@@H](Cc1c[nH]c2ccccc12)C(=O)N[C@H](CC(C)C)C(=O)N[C@@H](Cc1c[nH]c2ccccc12)C(=O)N[C@H](CC(C)C)C(=O)N[C@@H](Cc1c[nH]c2ccccc12)C(=O)N[C@H](CC(C)C)C(=O)N[C@@H](Cc1c[nH]c2ccccc12)C(=O)NCCO)C(C)C [compound 10497] (For-VGA[dT]A[dL]V[dL]W[dL]W[dL]W[dL]W-NHCH2CH2OH) ?
100.0

// query: CC(C)C[C@@H](NC(=O)[C@H](C)NC(=O)[C@H](NC(=O)[C@H](C)NC(=O)CNC(=O)[C@@H](NC=O)C(C)C)C(C)C)C(=O)N[C@H](C(=O)N[C@H](CC(C)C)C(=O)N[C@@H](Cc1c[nH]c2ccccc12)C(=O)N[C@H](CC(C)C)C(=O)N[C@@H](Cc1c[nH]c2ccccc12)C(=O)N[C@H](CC(C)C)C(=O)N[C@@H](Cc1c[nH]c2ccccc12)C(=O)N[C@H](CC(C)C)C(=O)N[C@@H](Cc1c[nH]c2ccccc12)C(=O)NCCO)C(C)C [compound 12877] (For-VGA[dV]A[dL]V[dL]W[dL]W[dL]W[dL]W-NHCH2CH2OH)
4.7

// query: CC(C)C[C@@H](NC(=O)[C@H](C)NC(=O)[C@H](NC(=O)[C@H](C)NC(=O)CNC(=O)[C@@H](NC=O)C(C)C)C(C)C)C(=O)N[C@H](C(=O)N[C@@H](C(=O)N[C@@H](Cc1c[nH]c2ccccc12)C(=O)N[C@H](CC(C)C)C(=O)N[C@@H](Cc1c[nH]c2ccccc12)C(=O)N[C@@H](C(=O)N[C@@H](Cc1c[nH]c2ccccc12)C(=O)N[C@@H](C(=O)N[C@@H](Cc1c[nH]c2ccccc12)C(=O)NCCO)C(C)C)C(C)C)C(C)C)C(C)C [compound 8697] (For-VGA[dV]A[dL]V[dV]W[dL]W[dV]W[dV]W-NHCH2CH2OH)
100.0

// query: CNC(=O)C[C@@H](NC(=O)[C@H](Cc1c[nH]c2ccccc12)NC(=O)[C@H](NC(=O)[C@H](Cc1c[nH]c2ccccc12)NC(=O)[C@@H](CC(C)C)NC(=O)[C@H](Cc1c[nH]c2ccccc12)NC(=O)[C@H](NC(=O)[C@@H](NC(=O)[C@@H](CC(C)C)NC(=O)[C@H](C)NC(=O)[C@H](NC(=O)[C@H](C)NC(=O)CNC(=O)[C@@H](NC=O)C(C)C)C(C)C)C(C)C)C(C)C)C(C)C)C(=O)N[C@@H](Cc1c[nH]c2ccccc12)C(=O)NCCO [compound 7228] (For-VGA[dV]A[dL]V[dV]W[dL]W[dV]W[dD](NHMe)W-NHCH2CH2OH)
100.0
